Values compiled from patent US11440913B2.

Target: His-GST-TVMV-hRIPK1(1-324) (Homo sapiens (Human), UniProt Q13546)
Sequence (Q13546 1-324): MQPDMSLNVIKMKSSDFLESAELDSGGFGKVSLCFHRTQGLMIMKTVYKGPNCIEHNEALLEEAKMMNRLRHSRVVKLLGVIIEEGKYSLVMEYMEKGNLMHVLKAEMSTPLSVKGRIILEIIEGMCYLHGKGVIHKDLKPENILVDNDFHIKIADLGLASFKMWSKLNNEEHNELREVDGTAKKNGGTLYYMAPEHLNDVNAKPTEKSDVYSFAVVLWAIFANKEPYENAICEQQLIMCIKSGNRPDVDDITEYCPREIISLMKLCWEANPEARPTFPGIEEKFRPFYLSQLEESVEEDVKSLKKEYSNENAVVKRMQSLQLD
Assay: RIPK1 HTRF Binding Assay
Conditions: HTRF binding, 1 h at rt; read-out: RIPK1 (IC50)
measure: IC50 (nM)
Please state the figure in nM; there is no need to write the unit.

Example results:
# compound, systemTested, measure, recordedResult
records = [
    ("COc1nc(C)c(-c2ccc3nc(NC(C)=O)cn3n2)cc1C(=O)NCc1cc(OCC2CC2)ccc1F [Example 297]", "His-GST-TVMV-hRIPK1(1-324) (Homo sapiens (Human), UniProt Q13546)", "IC50", 11),
    ("CC(=O)Nc1cn2nc(-c3cc(C(=O)N[C@H](C)c4cc(OC(F)(F)F)ccc4F)c(C)nc3C)ccc2n1 [Example 71]", "His-GST-TVMV-hRIPK1(1-324) (Homo sapiens (Human), UniProt Q13546)", "IC50", 5),
    ("[2H]C([2H])([2H])[C@@H](NC(=O)c1cc(-c2ccc3nc(NC(C)=O)cn3n2)cnc1C)c1cc(OC(F)(F)F)ccc1F [Example 199]", "His-GST-TVMV-hRIPK1(1-324) (Homo sapiens (Human), UniProt Q13546)", "IC50", 13),
]

As a next step, examine the compound that follows.
Report value: IC50, system: His-GST-TVMV-hRIPK1(1-324) (Homo sapiens (Human), UniProt Q13546), compound: CC(=O)Nc1cn2nc(-c3cc(F)c(C)c(C(=O)NCc4ccccc4Oc4ccccc4)c3)ccc2n1 [Example 364]
7

----------
Target: His-GST-TVMV-hRIPK1(1-324) (Homo sapiens (Human), UniProt Q13546)
Test: RIPK1 HTRF Binding Assay
Conditions: HTRF binding, 1 h at rt; read-out: RIPK1 (IC50)
pIC50: −log10 of the molar value.
Please enter met where pIC50 is greater than or equal to 8, and not met where it is lower.

The following molecules have reported results that may help.
# molecule, class
records = [
    ("CC(=O)Nc1cn2nc(-c3cc(F)c(F)c(C(=O)N[C@H](C)c4cc(OC(F)(F)F)ccc4F)c3)ccc2n1", "not met"),
    ("CC(=O)Nc1cn2nc(-c3ccc(C)c(C(=O)N[C@H](C)c4cc(OC(F)(F)F)ccc4F)c3)ccc2n1", "met"),
    ("CC(=O)Nc1cn2nc(-c3cncc(C(=O)NCCC(C)c4ccccc4)c3)ccc2n1 (centres unmarked)", "not met"),
]

For this molecule, is measured pIC50 8 or higher? "[2H]C([2H])(NC(=O)c1cc(-c2ccc3nc(NC(C)=O)cn3n2)cnc1C)c1cc(OC(F)(F)F)ccc1F"
met

For this molecule, is measured pIC50 8 or higher? "[2H]C([2H])([2H])[C@@H](NC(=O)c1c(C)ccc(-c2ccc3nc(NC(C)=O)cn3n2)c1F)c1cc(OC(F)(F)F)ccc1F"
met

For this molecule, is measured pIC50 8 or higher? "Cc1ncc(-c2ccc3nc(NC(=O)CN4CCN(C)CC4)cn3n2)cc1C(=O)N[C@H](C)c1cc(C(F)(F)F)ccc1F"
not met

For this molecule, is measured pIC50 8 or higher? "CC(=O)Nc1cn2nc(-c3cncc(C(=O)NCc4cc(OC(F)(F)F)ccc4F)c3)ccc2n1"
not met

For this molecule, is measured pIC50 8 or higher? "CC(=O)Nc1cn2nc(-c3cc(C(=O)NCc4cc(C(F)(F)F)cc(Cl)c4F)c(C)cc3C)ccc2n1"
not met

For this molecule, is measured pIC50 8 or higher? "COc1c(F)cc(-c2ccc3nc(NC(C)=O)cn3n2)cc1C(=O)NCc1cc(OC(F)(F)F)ccc1F"
met

For this molecule, is measured pIC50 8 or higher? "[2H]C([2H])(NC(=O)c1cc(-c2ccc3nc(NC(C)=O)cn3n2)c(C)nc1C)c1cc(OC(F)(F)F)ccc1F"
met

----------
Molecular target: His-GST-TVMV-hRIPK1(1-324) (Homo sapiens (Human))
Test: RIPK1 HTRF Binding Assay
Conditions: HTRF binding, 1 h at rt; read-out: RIPK1 (IC50)
Procedure: A solution was prepared containing 0.2 nM Anti GST-Tb (Cisbio, 61GSTTLB), 90.6 nM probe and 1 nM His-GST-TVMV-hRIPK1(1-324) in FRET Buffer (20 mM HEPES, 10 mM MgCl2, 0.015% Brij-35, 4 mM DTT, 0.05 mg/mL BSA). […] FRET was measured using the EnVision plate reader (Excitation: 340 nm, Emission: 520 nm/[…]). Total signal (0% inhibition) was calculated from wells containing 10 nL DMSO only. […]
Catalogue of pIC50 readings, one per entry.
// field semantics: pIC50 = negative decimal log of concentration (mol/L)

Example results:
# compound, pIC50
records = [
    ("CC(=O)Nc1cn2nc(-c3ccc(Cl)c(C(=O)N[C@H](C)c4cc(OC(F)(F)F)ccc4F)c3F)ccc2n1", 8.15),
    ("CC(=O)Nc1cn2nc(-c3cccc(C(=O)NCc4cc(OC(F)(F)F)ccc4F)c3F)ccc2n1", 8.70),
    ("COc1nc(C)c(-c2ccc3nc(NC(C)=O)cn3n2)cc1C(=O)NC(C)c1ccccc1OC(F)(F)F (stereo not shown) [Example 290]", 8.15),
]

As a next step, examine the compound that follows.
Write down pIC50 measured for item "COc1ncc(-c2ccc3nc(NC(C)=O)cn3n2)cc1C(=O)NCc1cc(F)cc(F)c1OCC(C)C"
8.00

----------
Molecular target: His-GST-TVMV-hRIPK1(1-324) (Homo sapiens (Human), UniProt Q13546)
Assay: RIPK1 HTRF Binding Assay
Details: HTRF binding, 1 h at rt; read-out: RIPK1 (IC50)
pIC50: −log10 of the molar value. Structures can show the parent of a compound that is named as a salt.
Please enter fulfilled where pIC50 is greater than or equal to 8, and not fulfilled where it is lower.

For this molecule, is measured pIC50 8 or higher? "COc1ncc(-c2ccc3nc(NC(C)=O)cn3n2)cc1C(=O)NCc1cc(F)ccc1OCC(F)(F)F"
fulfilled

For this molecule, is measured pIC50 8 or higher? "CC(=O)Nc1cn2nc(-c3cnc(Cl)c(C(=O)NCC[C@H](O)c4ccc(Cl)cc4)c3)ccc2n1"
not fulfilled

For this molecule, is measured pIC50 8 or higher? "COCC(=O)Nc1cn2nc(-c3cnc(OC)c(C(=O)NCc4cc(OC(F)(F)F)ccc4F)c3)ccc2n1"
not fulfilled

For this molecule, is measured pIC50 8 or higher? "CC(=O)Nc1nc2ccc(-c3cnc(C)c(C(=O)NCc4cc(C(F)(F)F)ccc4F)c3)nn2c1C"
not fulfilled

For this molecule, is measured pIC50 8 or higher? "[2H]C([2H])([2H])Oc1nc(C)c(-c2ccc3nc(NC(C)=O)cn3n2)cc1C(=O)NCc1c(F)cccc1OCC(F)(F)F"
fulfilled

For this molecule, is measured pIC50 8 or higher? "CC(=O)Nc1cn2nc(-c3ccc(Cl)c(C(=O)NCC[C@@H](O)c4ccc(Cl)cc4)c3)ccc2n1"
fulfilled

For this molecule, is measured pIC50 8 or higher? COc1nc(C)c(-c2ccc3nc(NC(C)=O)cn3n2)cc1C(=O)NCc1ccccc1OC(C)C1CCCC1 (centres unmarked) [Example 303]
not fulfilled

For this molecule, is measured pIC50 8 or higher? "COc1ncc(-c2ccc3nc(NC(C)=O)cn3n2)cc1C(=O)N[C@H](C)c1cc(OC(F)(F)F)ccc1F"
not fulfilled

For this molecule, is measured pIC50 8 or higher? CC(=O)Nc1cn2nc(-c3cnc(C)c(C(=O)NC(C)c4cc(OC(F)(F)F)ccc4F)c3)ccc2n1 (single isomer, unassigned)
not fulfilled

For this molecule, is measured pIC50 8 or higher? "Cc1nc(C)c(-c2ccc3nc(NC(=O)CO)cn3n2)cc1C(=O)N[C@H](C)c1cc(OC(F)(F)F)ccc1F"
not fulfilled

For this molecule, is measured pIC50 8 or higher? COc1ncc(-c2ccc3nc(NC(C)=O)cn3n2)cc1C(=O)NCc1ccccc1CN1CCOCC1 [Example 113, TFA]
not fulfilled

----------
Biological target: His-GST-TVMV-hRIPK1(1-324) (Homo sapiens (Human), UniProt Q13546)
Assay: RIPK1 HTRF Binding Assay
Settings: HTRF binding, 1 h at rt; read-out: RIPK1 (IC50)
Where a name gives a salt, the structure may show the parent alone.
measure: pIC50
// field semantics: pIC50 = negative decimal log of concentration (mol/L)

Example results:
# compound, pIC50
data = [
    ("COc1nc(C)c(-c2ccc3nc(NC(C)=O)cn3n2)cc1C(=O)NCc1ccccc1OC(F)(F)F", 7.92),
    ("COc1ncc(-c2ccc3nc(NC(C)=O)cn3n2)cc1C(=O)NCc1cc(OC(F)(F)F)ccc1F [Example 145]", 8.30),
    ("COc1ncc(-c2ccc3nc(NC(C)=O)cn3n2)cc1C(=O)NCc1ccccc1-n1cccc1", 6.31),
    ("CC(=O)Nc1cn2nc(-c3cnc(C(F)(F)F)c(C(=O)NCc4c(F)ccc(F)c4OCC4CC4)c3)ccc2n1", 7.09),
    ("[2H]C([2H])([2H])[C@@H](NC(=O)c1cnc(C)c(-c2ccc3nc(NC(C)=O)cn3n2)c1)c1cc(OC(F)(F)F)ccc1F", 6.87),
    ("CNCC(=O)Nc1cn2nc(-c3cc(F)c(C)c(C(=O)NCC[C@H](O)c4ccc(Cl)cc4)c3)ccc2n1", 7.19),
]

As a next step, examine the compound that follows.
Write down pIC50 measured for item COc1nc(C)c(-c2ccc3nc(NC(C)=O)cn3n2)cc1C(=O)NCc1cc(OC(F)(F)F)ccc1F [Example 311, TFA]
8.22
